Collected pIC50 values appear next to each entry.
Molecular target: mu opioid receptor (MOR) (Homo sapiens)
Sequence (P35372 whole entry): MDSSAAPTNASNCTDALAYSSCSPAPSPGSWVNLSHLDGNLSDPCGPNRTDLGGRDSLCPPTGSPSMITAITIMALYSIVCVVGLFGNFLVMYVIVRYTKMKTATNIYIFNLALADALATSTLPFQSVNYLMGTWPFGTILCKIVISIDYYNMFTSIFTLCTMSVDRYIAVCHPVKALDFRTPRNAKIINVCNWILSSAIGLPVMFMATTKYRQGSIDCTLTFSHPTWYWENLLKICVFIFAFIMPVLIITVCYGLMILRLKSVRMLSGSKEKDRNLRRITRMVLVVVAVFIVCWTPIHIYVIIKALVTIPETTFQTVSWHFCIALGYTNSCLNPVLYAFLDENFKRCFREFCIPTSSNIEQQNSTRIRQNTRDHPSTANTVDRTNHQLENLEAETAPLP
Test: OPRMu1 Discover X β-arrestin Assay, antagonist mode (U2OS cells, DAMGO EC80 challenge)
Method: OPRMu1 Discover X—β-arrestin Assay—Antagonist Mode. […] This assay evaluates the OPRMu1 activation in membrane recruitment of β-arrestin. […] As designed, compounds that act as antagonists will prevent receptor activation resulting in reduced well luminescence. […] On Day 2, 100 nL of test compound in DMSO were added to the appropriate wells and the plates were then incubated for 30 min at 37° C. […] Well luminescence was measured on Perkin Elmer's Envision. […]
pIC50: −log10 of the molar value.

As a guide, the following entries are already answered.
• CCc1cc(F)c2nc(N3CCC(N[C@H]4CCCC(F)(F)C4)CC3)c(-c3ccn(C)n3)c(C)c2c1 [Compound 73] = 6.00 to 7.00
• CCc1cc(F)c2nc(N3CCN(C(=O)CN4CCC(F)(F)CC4)C[C@H]3C)c(-c3nc(C)no3)c(C)c2c1 [Compound 156] = 6.00 to 7.00
• CCc1cc(C#N)c2nc(N3CCC(N[C@@H]4CCOC[C@@H]4F)CC3)c(-c3ccn(C)n3)c(C)c2c1 [Compound 78] = 7.00 to 8.00
• CCc1cc(F)c2nc(N3CCN(C(=O)CN4CCCC4)C[C@H]3C)c(-c3ccn(C)n3)c(C)c2c1 [Compound 173] = 6.00 to 7.00
• CCc1cc(F)c2nc(N3CC[C@@H](N[C@@H]4CCCOC4)C[C@H]3C)c(-c3ccn(C)n3)c(C)c2c1 [Compound 119] = 6.00 to 7.00
• CCc1cc(F)c2nc(N3CCN(CC4CCOCC4)C[C@H]3CC)c(-c3nc(C)no3)c(C)c2c1 [Compound 34] = 6.00 to 7.00

Q: State the recorded pIC50 for this entry: CCc1cc(-c2cnn(CCO)c2)c2nc(N3CCNC[C@H]3C)c(-c3nc(C)no3)c(C)c2c1 [Compound 106]
A: < 6.00

====

biological target: mu opioid receptor (MOR) (Homo sapiens); test: OPRMu1 Discover X β-arrestin Assay, antagonist mode (U2OS cells, DAMGO EC80 challenge)
Collected IC50 values appear next to each entry.

As a guide, the following entries are already answered.
- CCc1cc(F)c2nc(N3CC[C@H](N[C@@H]4CCCOC4)C[C@H]3C)c(-c3ccn(C)n3)c(C)c2c1 [Compound 122]: 10 to 100 nM
- CCc1cc(F)c2nc(N3CCC(N[C@@H]4CCOC4)CC3)c(-c3cc(C)n(C)n3)c(C)c2c1 [Compound 66]: 100 to 1000 nM
- CCc1cc(F)c2nc(N3CCC(N[C@@H]4CCOC[C@@H]4F)CC3)c(-c3cc(C)n(C)n3)c(C)c2c1 [Compound 14]: 100 to 1000 nM
- CCc1cc(C#N)c2nc(N3CCC(N[C@H]4CCOC[C@@H]4F)CC3)c(-c3ccn(C)n3)c(C)c2c1 [Compound 77]: 100 to 1000 nM
- CCc1cc(F)c2nc(N3CCN(CC4CCOCC4)C4CC43)c(-c3nc(C)no3)c(C)c2c1 (stereo not shown) [Compound 60]: > 1000 nM

Q: Form field - read-out: IC50; system: mu opioid receptor (MOR) (Homo sapiens); submitted item: CCc1cc(F)c2nc(N3CC[C@H](N[C@@H]4CCOC4)C[C@H]3C)c(-c3ccn(C)n3)c(C)c2c1 [Compound 118]
A: 100 to 1000 nM

Q: Form field - read-out: IC50; system: mu opioid receptor (MOR) (Homo sapiens); submitted item: CCc1cc(F)c2nc(N3CC[C@@H](N[C@@H]4CCCOC4)[C@@H](C)C3)c(-c3ccn(C)n3)c(C)c2c1 [Compound 113]
A: > 1000 nM
